Target: muscarinic receptors (M1-site, pirenzepine sensitive site) (Rattus norvegicus)
Construct: from tissue; host or cells: cerebral cortex membranes of male Wistar rats
Sequence (P08482 1-460): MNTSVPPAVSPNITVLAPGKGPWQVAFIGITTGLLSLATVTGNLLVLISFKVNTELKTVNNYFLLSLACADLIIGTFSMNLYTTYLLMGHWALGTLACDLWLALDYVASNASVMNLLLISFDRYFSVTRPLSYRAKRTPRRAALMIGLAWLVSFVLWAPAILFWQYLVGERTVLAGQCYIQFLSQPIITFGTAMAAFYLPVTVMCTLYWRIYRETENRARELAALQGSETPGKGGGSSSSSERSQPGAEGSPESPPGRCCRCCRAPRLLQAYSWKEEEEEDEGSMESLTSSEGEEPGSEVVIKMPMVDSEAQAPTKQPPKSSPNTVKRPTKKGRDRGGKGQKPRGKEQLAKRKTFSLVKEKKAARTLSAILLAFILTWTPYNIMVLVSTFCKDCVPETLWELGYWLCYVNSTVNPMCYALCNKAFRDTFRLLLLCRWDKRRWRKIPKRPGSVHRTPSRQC
Assay: Inhibition of 3HPRZ (pirenzepine, [N-methyl-3H]) binding to rat cerebral cortex membranes
Design: species or system male Wistar rats
Conditions: rat cerebral cortex, 1.0 nM 3HPRZ, 60 min, 20° C., pH 7.4; read-out: 3HPRZ IC50
pIC50: −log10 of the molar value.
measured-parameter: pIC50

| molecule | observed-measurement |
| --- | --- |
| FC(F)(F)CCCSc1nccnc1O[C@@H]1CN2CCC[C@H]1C2 (relative stereo) | 9.27 |
| FC(F)(F)CSc1cncc(O[C@@H]2CN3CCC[C@H]2C3)n1 (relative stereo) | 7.77 |
| C=CCSc1nccnc1O[C@@H]1CN2CCC[C@H]1C2 (relative stereo) | 8.24 |
| CC(C)CSc1nccnc1O[C@@H]1CN2CCC[C@H]1C2 (relative stereo) | 8.77 |
| CCCCSc1nccnc1O[C@@H]1CN2CCC[C@H]1C2 (relative stereo) | 9.27 |
| COCCSc1nccnc1O[C@@H]1CN2CCC[C@H]1C2 (relative stereo) | 8.80 |
| C(=Cc1ccccc1)CSc1nccnc1O[C@@H]1CN2CCC[C@H]1C2 (relative stereo) | 8.32 |
| CCCCCSc1nccnc1O[C@@H]1CN2CCC[C@H]1C2 (relative stereo) | 9.09 |
| CCCSc1nccnc1O[C@@H]1CN2CCC[C@H]1C2 (relative stereo) | 9.17 |
| C/C=C/CSc1nccnc1O[C@@H]1CN2CCC[C@H]1C2 (relative stereo) | 9.18 |
| FC(F)(F)Oc1ccc(CSc2nccnc2O[C@@H]2CN3CCC[C@H]2C3)cc1 (relative stereo) | 8.48 |
| FC(F)(F)CSc1nccnc1O[C@@H]1CN2CCC[C@H]1C2 (relative stereo) | 9.15 |
| c1cnc(O[C@H]2CN3CCC[C@@H]2C3)cn1 (relative stereo) | 6.91 |
| CCSc1nccnc1O[C@@H]1CN2CCC[C@H]1C2 (relative stereo) | 8.40 |
| Clc1cncc(O[C@@H]2CN3CCC[C@H]2C3)n1 (relative stereo) | 7.28 |
| CC(C)=CCCSc1nccnc1O[C@@H]1CN2CCC[C@H]1C2 (relative stereo) | 8.66 |
| CC(C)CCSc1nccnc1O[C@@H]1CN2CCC[C@H]1C2 (relative stereo) | 9.12 |
| CCCSc1cncc(O[C@@H]2CN3CCC[C@H]2C3)n1 (relative stereo) | 7.10 |
